- protocol summary: Inhibition of baker's yeast alpha-glucosidase using p-nitrophenyl-alpha-D-glucopyranoside substrate assessed as inhibition constant for enzyme-compound binding by measuring reduction in p-nitrophenolate formation
- Set-up: species or system Saccharomyces cerevisiae
readout type: Ki (µM)
Give just the numeric value; µM need not be written.

Look up and report measured Ki for this entry: `Oc1cc(/C=N/NC(=[Se])Nc2cccc3ccccc23)cc(O)c1O`
154

Look up and report measured Ki for this entry: `Oc1ccc(/C=N/NC(=[Se])Nc2cccc3ccccc23)cc1O`
57.8

Look up and report measured Ki for this entry: `Oc1cc(/C=N/NC(=S)Nc2ccccc2)cc(O)c1O`
297

====

- protocol summary: Antioxidant activity assessed as DPPH free radical scavenging activity incubated for 30 mins
- Format: physicochemical
readout type: pEC50
In textbook form, pEC50 equals minus log to base ten of the concentration in mol/L.

Look up and report measured pEC50 for this entry: `O=Cc1cc(O)c(O)c(O)c1`
4.81

Look up and report measured pEC50 for this entry: `NNC(=[Se])Nc1cccc2ccccc12`
5.18

Look up and report measured pEC50 for this entry: `Oc1ccc(/C=N/NC(=[Se])Nc2ccccc2)cc1`
4.56

Look up and report measured pEC50 for this entry: `Oc1ccc(/C=N/NC(=[Se])Nc2cccc3ccccc23)cc1`
4.66

Look up and report measured pEC50 for this entry: `Oc1ccc(/C=N/NC(=S)Nc2ccccc2)cc1`
4.05

Look up and report measured pEC50 for this entry: `Oc1cc(/C=N/NC(=S)Nc2ccccc2)cc(O)c1O`
5.15

Look up and report measured pEC50 for this entry: `O=Cc1ccc(O)c(O)c1`
5.18

Look up and report measured pEC50 for this entry: `Oc1ccc(/C=N/NC(=[Se])Nc2ccccc2)cc1O`
5.06

Look up and report measured pEC50 for this entry: OCCc1ccc(O)c(O)c1 [HYDROXYTYROSOL]
4.86

Look up and report measured pEC50 for this entry: `Oc1cc(/C=N/NC(=[Se])Nc2cccc3ccccc23)cc(O)c1O`
5.05

Look up and report measured pEC50 for this entry: `Oc1cc(O)c(/C=N/NC(=S)Nc2ccccc2)cc1O`
4.86

====

For each entry below, report its inhibition value.
- protocol summary: Inhibition of baker's yeast alpha-glucosidase using p-nitrophenyl-alpha-D-glucopyranoside substrate assessed as reduction in p-nitrophenolate formation at 500 uM
- protocol conditions: Saccharomyces bayanus

Look up and report measured inhibition for this entry: `Oc1cc(/C=N/NC(=[Se])Nc2cccc3ccccc23)cc(O)c1O`
98%

Look up and report measured inhibition for this entry: `Oc1cc(/C=N/NC(=S)Nc2ccccc2)cc(O)c1O`
70%

====

- protocol summary: Inhibition of baker's yeast alpha-glucosidase using p-nitrophenyl-alpha-D-glucopyranoside substrate assessed as inhibition constant for enzyme-substrate-compound binding by measuring reduction in p-nitrophenolate formation
For each entry below, report its pKi value.
In textbook form, pKi equals minus log to base ten of the concentration in mol/L.

Look up and report measured pKi for this entry: `Oc1ccc(/C=N/NC(=[Se])Nc2cccc3ccccc23)cc1`
4.23

Look up and report measured pKi for this entry: `Oc1ccc(/C=N/NC(=[Se])Nc2cccc3ccccc23)cc1O`
4.16

Look up and report measured pKi for this entry: `Oc1ccc(/C=N/NC(=S)Nc2ccccc2)cc1`
3.67

Look up and report measured pKi for this entry: `Oc1cc(/C=N/NC(=[Se])Nc2cccc3ccccc23)cc(O)c1O`
4.15

Look up and report measured pKi for this entry: `Oc1ccc(/C=N/NC(=S)Nc2ccccc2)cc1O`
3.87

====

- protocol summary: Antioxidant activity assessed as H2O2 scavenging activity at 100 uM incubated for 20 mins by phenol red based assay
- Format: physicochemical
readout type: inhibition (INH) (%)
Give just the numeric value; % need not be written.

Look up and report measured inhibition (INH) for this entry: `Oc1cc(/C=N/NC(=[Se])Nc2cccc3ccccc23)cc(O)c1O`
38.1

Look up and report measured inhibition (INH) for this entry: `Oc1cc(O)c(/C=N/NC(=[Se])Nc2cccc3ccccc23)cc1O`
4.5

Look up and report measured inhibition (INH) for this entry: `Oc1ccc(/C=N/NC(=[Se])Nc2ccccc2)cc1`
72.5

Look up and report measured inhibition (INH) for this entry: `Oc1cc(/C=N/NC(=S)Nc2ccccc2)cc(O)c1O`
80

Look up and report measured inhibition (INH) for this entry: `O=Cc1cc(O)c(O)cc1O`
80.3

Look up and report measured inhibition (INH) for this entry: `Oc1ccc(/C=N/NC(=[Se])Nc2ccccc2)cc1O`
69

Look up and report measured inhibition (INH) for this entry: `Oc1cc(/C=N/NC(=[Se])Nc2ccccc2)cc(O)c1O`
64

Look up and report measured inhibition (INH) for this entry: `Oc1ccc(/C=N/NC(=S)Nc2ccccc2)cc1`
79.5

Look up and report measured inhibition (INH) for this entry: `Oc1ccc(/C=N/NC(=S)Nc2ccccc2)cc1O`
79.3

Look up and report measured inhibition (INH) for this entry: O=Cc1ccc(O)c(O)c1 [PROTOCATECHUALDEHYDE]
78.3

Look up and report measured inhibition (INH) for this entry: `Oc1ccc(/C=N/NC(=[Se])Nc2cccc3ccccc23)cc1`
53.1

====

For each entry below, report its GI50 value.
- protocol summary: Antiproliferative activity against human HBL100 cells after 48 hrs by sulforhodamine B assay
- Assay type: functional
- protocol conditions: HBL-100, 48 h

Look up and report measured GI50 for this entry: O=Cc1ccc(O)cc1 [4-HYDROXYBENZALDEHYDE]
> 100 µM

Look up and report measured GI50 for this entry: `O=Cc1ccc(O)c(O)c1`
> 100 µM

Look up and report measured GI50 for this entry: `O=Cc1cc(O)c(O)cc1O`
> 100 µM

Reference source for all entries: ChEMBL document CHEMBL3414459
